molecular target: T1, Recombinant MBP-mutCALR Type 1 fusion protein (human); test: SPR, IgG captured, 1:1 fit, Exp. 1
T1 construct: custom made at Cepter; also called recombinant mutCALR protein
Give measured kon for each item. Keep answers brief.
One number for each entry, in M⁻¹ s⁻¹.

Examples from the recorded data:
BINDER	UNITS_TEXT	ENDPOINT_RESULT
anti-mutCALR antibody clone 11 (antibody, human IgG1, lambda, V domains shown, human IgG1) VH: EVRLVQSGAEVKKPGASVKVSCKVSGYTLTELSMQWVRQAPGKGLEWMGGFDPDDGETMYAEKFQGRLTVTEDTSTDTVYMELRSLTSEDTALYFCATSPGYDFFDYWGQGTLVTVSS VL: QSALTQPRSVSGSPGQSVTISCTGTSSDVGGYNYVSWYQQHPGKAPKLMIYDVSKRPSGVPDRFSGSNSGNTATLTINRVEAGDEADYYCQVWDSSNDLLIFGGGTKLTVLG	M⁻¹ s⁻¹	514000
anti-mutCALR antibody clone 18 (antibody, human IgG1, lambda, V domains shown, human IgG1) VH: EVQLVQSGAEVKKPGASVKVSCKVSGYTLTELSMQWVRQAPGKGLEWMGGFDPDDGETMYAEKFQGRLTVTEDTSTDTVYMELRSLTSEDTALYFCATSPGYDFFDYWGQGTLVTVSS VL: SYVLTQPPSVSVAPGKTARITCGGNNIGSKSVHWYQQKPGQAPVLVVYDDSDRPLGIPERFSGSNSGNTATLTINRVEAGDEADYYCQVWDSSNDLLIFGGGTKLTVLG	M⁻¹ s⁻¹	2.37e+06
anti-mutCALR antibody clone 53 (antibody, human IgG1, lambda, V domains shown, human IgG1) VH: QVQLVQSGAEVKKPGASVKVSCKVSGYTLTELSMHWVRQAPGKGLEWMGGFDPEDGETIYAQKFQGRVTMTEDTSTDTAYMELSSLRSEDTAVYYCATDIQGLAEFDYWGQGTLVTVSS VL: QSALTQPRSVSGSPGQSVTISCTGTNTDVGAYIDVSWYQQHPGKAPKLIIYDVSKWPSGVPDRFSGSKSGNTASLTISGLQAEDEADYYCCSYAGNHSFSFGGGTKVTVLG	M⁻¹ s⁻¹	229000

Which kon value belongs to anti-mutCALR antibody clone 41 (antibody, human IgG1, lambda, V domains shown, human IgG1) VH: EVQLVQSGAEVKKPGASVKVSCKVSGYTLTELSMHWVRQAPGKGLEWMGLVDPEDGETIYAQKFQGRVTMTEDTSTDTAYMELSSLRSEDTAVYYCAREEWSGDGDDAFDIWGQGTMVTVSS VL: QSVLTQPPSVSAAPGQKVTISCSGSSSNIGSYSVSWYQQLPGTAPKLLIYDNNKRPSGIPDRFSGSNSGTSATLGITGLQTGDEADYYCGTWDSSLSAWVFGGGTKLTVLG ?
1.66e+06
